- Tested on: MOLM-13 cells
- assayProtocol: Cell viability assay (CellTiter-Glo) in MOLM-13 cells, alone or with gilteritinib
- Assay type: cell-based
- protocolConditions: Homo sapiens, MOLM-13, 72 h, MOLM-13 cells, with gilteritinib 20 nM, three days, CellTiter-Glo; read-out: MOLM-13 IC50 gilteritinib
IC50 overview

[
  {
    "compound": "O=C1CCC(N2C(=O)c3ccc(NC4CCC(CCn5cc(-c6cnc7ccccc7n6)cn5)CC4)cc3C2=O)C(=O)N1 (centres unmarked)",
    "recordedMeasurement": "0.1 to 1 µM"
  },
  {
    "compound": "O=C1CCC(N2C(=O)c3ccc(NCCC[C@H]4C[C@H](n5cc(-c6cnc7ccc(F)cc7n6)cn5)C4)cc3C2=O)C(=O)N1 (some centres unmarked)",
    "recordedMeasurement": "0.01 to 0.1 µM"
  },
  {
    "compound": "O=C1CCC(N2Cc3ccc(CCCCCCCn4cc(-c5cnc6ccccc6n5)cn4)cc3C2=O)C(=O)N1 (centres unmarked)",
    "recordedMeasurement": "< 0.01 µM"
  },
  {
    "compound": "Cc1cccc(-c2ccn([C@H]3C[C@H](CNc4ccc5c(c4)C(=O)N(C4CCC(=O)NC4=O)C5=O)C3)n2)n1 (some centres unmarked)",
    "recordedMeasurement": "> 1 µM"
  },
  {
    "compound": "O=C1CCC(N2C(=O)c3ccc(NC[C@H]4C[C@H](n5cc(-c6cnc7ccc(N8CCNCC8)cc7n6)cn5)C4)cc3C2=O)C(=O)N1 (some centres unmarked)",
    "recordedMeasurement": "> 1 µM"
  }
]

stdin: Requested read-out IC50, target or system MOLM-13 cells, entry O=C1CCC(N2Cc3c(OCc4ccc(CN5CCC(n6cc(-c7cnc8ccccc8n7)cn6)CC5)cc4)cccc3C2=O)C(=O)N1 (centres unmarked)
stdout: 0.01 to 0.1 µM

stdin: So what IC50 did O=C(Cn1cc(-c2cnc3ccccc3n2)c(C2CC2)n1)NCc1ccc2c(c1)C(=O)N(C1CCC(=O)NC1=O)C2=O (centres unmarked) get with MOLM-13 cells?
stdout: 0.01 to 0.1 µM

stdin: API: value(readout=IC50, system=MOLM-13 cells) for record O=C1CCC(N2Cc3c(NC4CCCC(CCCCn5cc(-c6cnc7ccccc7n6)cn5)C4)cccc3C2=O)C(=O)N1 (centres unmarked)
stdout: > 1 µM

---

- System: MV4;11 cells
- assayProtocol: Cell viability assay (CellTiter-Glo) in MV4;11 cells, alone or with gilteritinib
- Type: cell-based
- protocolConditions: Homo sapiens, MV4-11, 72 h, MV4;11 cells, compound with gilteritinib 10 nM, three days, CellTiter-Glo; read-out: MV4; 11 IC50 gilteritinib
pIC50: −log10 of the molar value.
This section presents compounds with their documented pIC50 values.

[
  {
    "compound": "O=C1CCC(N2C(=O)c3ccc(NC[C@H]4C[C@H](n5cc(C6CC6)c(C6CC6)n5)C4)cc3C2=O)C(=O)N1 (some centres unmarked)",
    "readoutLabel": "pIC50",
    "recordedMeasurement": "6.00 to 7.00"
  }
]

stdin: What does the record list as pIC50 for Cc1nn([C@H]2C[C@H](CCCNc3ccc4c(c3)C(=O)N(C3CCC(=O)NC3=O)C4=O)C2)cc1-c1cnc2c(N3CCN(C)CC3)cccc2n1 (some centres unmarked) ?
stdout: 7.00 to 8.00

stdin: # pIC50 lookup, item O=C1CCC(N2C(=O)c3ccc(NCCCCCCn4ncc(-c5cnc6ccccc6n5)c4C(F)F)cc3C2=O)C(=O)N1 (centres unmarked)
stdout: > 8.00

stdin: What does the record list as pIC50 for O=C1CCC(N2C(=O)c3ccc(NCCCCCC(=O)N4CCC(n5cc(-c6cnc7ccc(N8CCNCC8)cc7n6)cn5)CC4)cc3C2=O)C(=O)N1 (centres unmarked) ?
stdout: > 8.00

stdin: Look up pIC50 for this compound: O=C1CCC(N2C(=O)c3ccc(NC[C@H]4C[C@H](n5cc(-c6ncccn6)c(C6CC6)n5)C4)cc3C2=O)C(=O)N1 (some centres unmarked)
stdout: 7.00 to 8.00

stdin: What measured pIC50 goes with O=C1CCC(N2C(=O)c3ccc(NCCC[C@H]4C[C@H](n5cc(-c6nccc7cccnc67)c(C6CC6)n5)C4)cc3C2=O)C(=O)N1 (some centres unmarked) ?
stdout: > 8.00

Where do these numbers come from? They come from patent US20240050428A1.
